tested on: SARS-CoV-2; assay: microbe, parasite or virus in culture; type: cell-based; conditions: Severe acute respiratory syndrome coronavirus 2, Vero C1008; SARS-CoV-2 infectious particles, Vero E6 cells, immunofocus assay; read-out: EC50 for the viral titer reduction
Where a name gives a salt, the structure may show the parent alone.
measure: EC50
Answer format: number, then unit.

Query: Supply reported EC50 belonging to this compound: CC(C)c1ccc2c(c1)C(N1CCN(CCO)CC1)Cc1ccc(F)cc1S2 (centres unmarked) [isofloxythepin]
Reply: 4.8 µM

Query: Supply reported EC50 belonging to this compound: "CCc1cc(O)c(Oc2ccc(C(N)=O)cc2F)cc1F"
Reply: 38.2 µM

Query: Supply reported EC50 belonging to this compound: c1ccc2nc(N3CCNCC3)ccc2c1 [quipazine maleate]
Reply: 31.6 µM

Query: Supply reported EC50 belonging to this compound: O=c1n(CC2CO2)c(=O)n(CC2CO2)c(=O)n1CC1CO1 (centres unmarked) [triglycidyl isocyanurate]
Reply: 30 µM

Query: Supply reported EC50 belonging to this compound: O=C1c2ccccc2CCC1CNCCc1ccc(O)cc1 (centres unmarked)
Reply: 24.1 µM

Query: Supply reported EC50 belonging to this compound: "CCOc1cc2ncc(C#N)c(Nc3ccc(F)c(Cl)c3)c2cc1NC(=O)/C=C/CN(C)C"
Reply: 1.25 µM

Query: Supply reported EC50 belonging to this compound: CC(C(O)c1ccc(O)cc1)N1CCC(Cc2ccccc2)CC1 (centres unmarked)
Reply: 46.9 µM

Query: Supply reported EC50 belonging to this compound: Cc1ccc(C(=O)C(C)CN2CCCCC2)cc1 (centres unmarked)
Reply: 19.2 µM

###

Can you tell me CC50 for the items I'm about to list?
test: Cell viability of Vero E6 cells (CCK-8 method); conditions: African green monkey

Query: Supply reported CC50 belonging to this molecule: O=c1n(CC2CO2)c(=O)n(CC2CO2)c(=O)n1CC1CO1 (stereo not shown) [triglycidyl isocyanurate]
Reply: > 100 µM

Query: Supply reported CC50 belonging to this molecule: O=C1Nc2ccccc2C2(CCN(CCc3ccc(C(F)(F)F)cc3)CC2)O1 [RS-102895]
Reply: 55 µM

Query: Supply reported CC50 belonging to this molecule: CC(C(O)c1ccc(O)cc1)N1CCC(Cc2ccccc2)CC1 (stereo not shown) [ifenprodil]
Reply: > 100 µM

Query: Supply reported CC50 belonging to this molecule: CCCC[C@@H](C=O)NC(=O)[C@H](CC(C)C)NC(=O)OCc1ccccc1 [calpeptin]
Reply: > 100 µM

###

Can you tell me CC50 for the items I'm about to list?
assay: in vitro; details: African green monkey
Answer format: numeric, µM implied, no suffix.

Query: Supply reported CC50 belonging to this molecule: O=C1c2ccccc2CCC1CNCCc1ccc(O)cc1 (stereo not drawn) [HEAT]
Reply: 55.4

Query: Supply reported CC50 belonging to this molecule: CC(C)c1ccc2c(c1)C(N1CCN(CCO)CC1)Cc1ccc(F)cc1S2 (stereo not drawn) [isofloxythepin]
Reply: 17

Query: Supply reported CC50 belonging to this molecule: CCOc1cc2ncc(C#N)c(Nc3ccc(F)c(Cl)c3)c2cc1NC(=O)/C=C/CN(C)C [pelitinib]
Reply: 14

###

assay: in vitro; details: African green monkey
Structures can show the parent of a compound that is named as a salt.
Can you tell me CC50 for the items I'm about to list?

Query: Supply reported CC50 belonging to this compound: c1ccc2nc(N3CCNCC3)ccc2c1 [quipazine maleate]
Reply: > 100 µM

Query: Supply reported CC50 belonging to this compound: Cc1ccc(C(=O)C(C)CN2CCCCC2)cc1 (stereo not drawn)
Reply: > 100 µM

Query: Supply reported CC50 belonging to this compound: "CCc1cc(O)c(Oc2ccc(C(N)=O)cc2F)cc1F"
Reply: > 100 µM

Source listed as paper PMC8224385.
